Tested on: HEK-293T
Assay: Multiplex assay against HEK293T
Format: toxicity, cell-based
Conditions: human, 12 h, 10 µM, compound concentration 10 uM, replicate 1
// Population Tubulin-Different-Phenotype (%) lookup, one value per entry
readout-label: Population Tubulin-Different-Phenotype (%)

{"molecule": "Cc1cnc(-c2cc(N3CCN(C(=O)CCS(C)(=O)=O)CC3)ncc2Cl)c(C)c1", "unit-spec": "%", "experimental-result": 40}
{"molecule": "Cl.NCCc1ccc(O)c(O)c1 [DOPAMINE HYDROCHLORIDE]", "unit-spec": "%", "experimental-result": 43}
{"molecule": "CN(C)C(=O)Cn1cc(-c2ccc(-c3cncc4ccccc34)cc2)cn1", "unit-spec": "%", "experimental-result": 47}
{"molecule": "COc1cccc2c1c(NS(=O)(=O)c1ccc(Cl)s1)nn2Cc1cccc(CNC(=O)C(C)(C)O)c1", "unit-spec": "%", "experimental-result": 38}
{"molecule": "Cc1noc(-c2ccc(-c3ccc(CC(=O)O)cc3)cc2)c1NC(=O)O[C@H](C)c1ccccc1Cl", "unit-spec": "%", "experimental-result": 65}
{"molecule": "CCCCC1=NC2(CCCC2)C(=O)N1Cc1ccc(-c2ccccc2-c2nnn[nH]2)cc1", "unit-spec": "%", "experimental-result": 50}
{"molecule": "O=C(CCCc1ccccc1)Nc1nc2ccccc2c(=O)s1", "unit-spec": "%", "experimental-result": 27}
{"molecule": "Cc1sc2c(c1C)C(c1ccc(Cl)cc1)=N[C@@H](CC(=O)NCCCCCCCCNC(=O)COc1cccc3c1C(=O)N(C1CCC(=O)NC1=O)C3=O)c1nnc(C)n1-2 (stereo partly drawn)", "unit-spec": "%", "experimental-result": 23}
{"molecule": "Cc1cccc(NC(=O)CN2CCC(c3ccccn3)CC2)c1.Cl.Cl", "unit-spec": "%", "experimental-result": 50}
{"molecule": "CCC(=O)N1CCN(c2ccc(-n3c(=O)ccc4cnc5ccc(-c6cnc7ccccc7c6)cc5c43)cc2C(F)(F)F)CC1", "unit-spec": "%", "experimental-result": 40}
{"molecule": "CC(C)(C)c1cc(NC(=O)Nc2ccc(-c3cn4c(n3)sc3cc(OCCN5CCOCC5)ccc34)cc2)no1", "unit-spec": "%", "experimental-result": 68}
{"molecule": "O=C(NCCN1CCC(n2c(=O)[nH]c3cc(Cl)ccc32)CC1)c1ccc(F)cc1 [HALOPEMIDE]", "unit-spec": "%", "experimental-result": 68}
{"molecule": "Br.CS(=O)(=O)Nc1c(O)ccc2c1CCCC2C1=NCCN1 (stereo not drawn)", "unit-spec": "%", "experimental-result": 33}
{"molecule": "CN[C@@H](C)C(=O)N[C@H](C(=O)N1CCC[C@H]1C(=O)Nc1snnc1-c1ccccc1)C1CCCCC1", "unit-spec": "%", "experimental-result": 78}
{"molecule": "CCc1cc2cc(NS(=O)(=O)c3ccc(C#N)cc3)ccc2n(CC)c1=O", "unit-spec": "%", "experimental-result": 48}
{"molecule": "COC[C@@H](c1ccc(C(F)(F)F)cc1)N1CCN(C2(C)CCN(C(=O)c3c(C)ncnc3C)CC2)C[C@@H]1C.O=C(O)/C=C\\C(=O)O [VICRIVIROC MALEATE]", "unit-spec": "%", "experimental-result": 57}
{"molecule": "CC(C)c1noc(N2CCC(COc3ccc(-c4ccc(S(C)(=O)=O)cc4)nc3)CC2)n1", "unit-spec": "%", "experimental-result": 55}
{"molecule": "CN1CCN(c2cc(-c3ccccc3)nc(N)n2)CC1", "unit-spec": "%", "experimental-result": 30}

====

Tested on: U2OS
Assay: Multiplex assay against U2OS
Type: toxicity, cell-based
Settings: human, 12 h, 1 µM, compound concentration 1 uM, replicate 1
// Population Normal (%) lookup, one value per entry
readout-label: Population Normal (%)

{"compound": "CCCOc1ccc2[nH]cc(C3=CCNCC3)c2n1.Cl", "readout-label": "Population Normal (%)", "experimental-result": 97}
{"compound": "Cl.NCCc1ccc(O)c(O)c1 [DOPAMINE HYDROCHLORIDE]", "readout-label": "Population Normal (%)", "experimental-result": 96}
{"compound": "COc1cccc2c1c(NS(=O)(=O)c1ccc(Cl)s1)nn2Cc1cccc(CNC(=O)C(C)(C)O)c1", "readout-label": "Population Normal (%)", "experimental-result": 96}
{"compound": "CC(C)COc1ccc(CNC(=O)N(Cc2ccc(F)cc2)C2CCN(C)CC2)cc1", "readout-label": "Population Normal (%)", "experimental-result": 97}
{"compound": "CC(C)(C)c1cc(NC(=O)Nc2ccc(-c3cn4c(n3)sc3cc(OCCN5CCOCC5)ccc34)cc2)no1", "readout-label": "Population Normal (%)", "experimental-result": 93}
{"compound": "COC[C@@H](c1ccc(C(F)(F)F)cc1)N1CCN(C2(C)CCN(C(=O)c3c(C)ncnc3C)CC2)C[C@@H]1C.O=C(O)/C=C\\C(=O)O [VICRIVIROC MALEATE]", "readout-label": "Population Normal (%)", "experimental-result": 95}
{"compound": "Cc1onc(-c2ccccc2Cl)c1C(=O)N(C)c1ccc(Cl)cc1", "readout-label": "Population Normal (%)", "experimental-result": 99}
{"compound": "Cc1cnc(-c2cc(N3CCN(C(=O)CCS(C)(=O)=O)CC3)ncc2Cl)c(C)c1", "readout-label": "Population Normal (%)", "experimental-result": 97}
{"compound": "Cc1noc(-c2ccc(-c3ccc(CC(=O)O)cc3)cc2)c1NC(=O)O[C@H](C)c1ccccc1Cl", "readout-label": "Population Normal (%)", "experimental-result": 95}
{"compound": "CCCCCC(O)/C=C/[C@H]1C(=O)CC(O)C1C/C=C\\CCCC(=O)O (stereo partly drawn)", "readout-label": "Population Normal (%)", "experimental-result": 98}
{"compound": "Br.CS(=O)(=O)Nc1c(O)ccc2c1CCCC2C1=NCCN1 (stereo not drawn)", "readout-label": "Population Normal (%)", "experimental-result": 97}
{"compound": "C[C@H](N)COC(=O)[C@@H](CCCCN)NC(=O)Cc1c(-c2ccc3ccccc3c2)[nH]c2c1ccc1ccccc12", "readout-label": "Population Normal (%)", "experimental-result": 96}
{"compound": "CCc1cc2cc(NS(=O)(=O)c3ccc(C#N)cc3)ccc2n(CC)c1=O", "readout-label": "Population Normal (%)", "experimental-result": 96}
{"compound": "O=C1[C@H](Cc2ccc(O)cc2)N2C(=O)CCN(C(=O)NCc3ccccc3)[C@H]2CN1Cc1cccc2ccccc12", "readout-label": "Population Normal (%)", "experimental-result": 96}
{"compound": "CCCCC1=NC2(CCCC2)C(=O)N1Cc1ccc(-c2ccccc2-c2nnn[nH]2)cc1", "readout-label": "Population Normal (%)", "experimental-result": 97}
{"compound": "CN[C@@H](C)C(=O)N[C@H](C(=O)N1CCC[C@H]1C(=O)Nc1snnc1-c1ccccc1)C1CCCCC1", "readout-label": "Population Normal (%)", "experimental-result": 94}
{"compound": "Cc1cccc(NC(=O)CN2CCC(c3ccccn3)CC2)c1.Cl.Cl", "readout-label": "Population Normal (%)", "experimental-result": 98}
{"compound": "CC[C@@H](C)Nc1nc(C)nc2c(-c3ccc(OC)nc3C)c(C)nn12", "readout-label": "Population Normal (%)", "experimental-result": 96}

====

System: Fibroblast
Experiment: Multiplex assay against human fibroblast
Type: toxicity, cell-based
Conditions: 24 h, 10 µM, compound concentration 10 uM, replicate 1
Entries are sorted into classes by Population Mitochondria Different-Phenotype (%) as follows: one (below 4%), two (4% to below 30%), three (30% or more)

{"molecule": "CC(C)COc1ccc(CNC(=O)N(Cc2ccc(F)cc2)C2CCN(C)CC2)cc1", "qualitative-label": "three"}
{"molecule": "CC[C@@H](C)Nc1nc(C)nc2c(-c3ccc(OC)nc3C)c(C)nn12", "qualitative-label": "two"}
{"molecule": "Cc1c(CC(=O)O)c2cccnc2n1Cc1ccc(S(C)(=O)=O)cc1C(F)(F)F", "qualitative-label": "one"}
{"molecule": "Cc1cnc(-c2cc(N3CCN(C(=O)CCS(C)(=O)=O)CC3)ncc2Cl)c(C)c1", "qualitative-label": "two"}
{"molecule": "CN(C)C(=O)Cn1cc(-c2ccc(-c3cncc4ccccc34)cc2)cn1", "qualitative-label": "two"}
{"molecule": "CCCCCC(O)/C=C/[C@H]1C(=O)CC(O)C1C/C=C\\CCCC(=O)O (some centres undefined)", "qualitative-label": "one"}
{"molecule": "O=C(NCCN1CCC(n2c(=O)[nH]c3cc(Cl)ccc32)CC1)c1ccc(F)cc1 [HALOPEMIDE]", "qualitative-label": "two"}
{"molecule": "COc1ccccc1N1CCN(C[C@@H](C(=O)NC(C)(C)C)c2ccccc2)CC1.Cl.Cl", "qualitative-label": "three"}

Data credit: ChEMBL document CHEMBL5058577
